Entries annotated with measured activity at 0.25 h, 10 µM
- subject-of-test: CYP2C19 (Homo sapiens)
- Sequence (P33261 whole entry): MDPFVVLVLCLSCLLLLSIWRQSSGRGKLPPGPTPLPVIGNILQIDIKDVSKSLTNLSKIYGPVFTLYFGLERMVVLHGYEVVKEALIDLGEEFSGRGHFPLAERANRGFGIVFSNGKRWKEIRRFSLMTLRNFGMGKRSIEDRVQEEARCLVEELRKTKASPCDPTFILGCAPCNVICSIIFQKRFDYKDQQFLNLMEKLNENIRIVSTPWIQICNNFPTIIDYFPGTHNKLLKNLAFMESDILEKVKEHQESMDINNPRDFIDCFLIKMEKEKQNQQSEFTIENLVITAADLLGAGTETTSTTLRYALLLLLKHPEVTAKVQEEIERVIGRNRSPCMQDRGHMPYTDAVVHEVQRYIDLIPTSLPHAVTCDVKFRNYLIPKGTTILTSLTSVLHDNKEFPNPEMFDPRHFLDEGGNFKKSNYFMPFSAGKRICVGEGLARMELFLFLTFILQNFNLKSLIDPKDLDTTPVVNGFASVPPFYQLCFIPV
- assay: Inhibition of CYP2C19 in human liver microsomes assessed as residual activity at 10 uM using S-mephenytoin as substrate preincubated for 5 mins followed by NADPH addition and measured after 15 mins by LC-MS/MS analysis relative to control
- Type: ADME
- measurement-setup: probe S-mephenytoin, read-out: Activity
The reply should contain only the number, in %.

Consider the compound shown here: C=CC(=O)Nc1cc2c(Nc3ccc(F)c(Cl)c3)ncnc2cc1OCc1cn(Cc2ccc(F)cc2)nn1 What is its recorded activity at 0.25 h, 10 µM? 51.1

Now the same for CC(=O)N1CCN(c2ccc(OCC3COC(Cn4ccnc4)(c4ccc(Cl)cc4Cl)O3)cc2)CC1 (centres undefined) [KETOCONAZOLE] 85.8

Now the same for C=CC(=O)Nc1cc2c(Nc3ccc(F)c(Cl)c3)ncnc2cc1OCc1cn(Cc2cccc(F)c2)nn1 53.5

Now the same for C=CC(=O)Nc1cc2c(Nc3ccc(F)c(Cl)c3)ncnc2cc1OCc1cn(Cc2ccc(Cl)cc2)nn1 56.4
